// data source = BigSolDB 2.1

Assay setup: in isobutanol, 293.15 K

Molecule	solubility (mole fraction)
O=C(Oc1ccccc1)c1ccccc1O	0.0517

----------
Assay setup: in methanol, 308.15 K
Value kind: solubility (mole fraction)

Molecule	Value kind	Obs value
O=C(Oc1ccccc1)c1ccccc1O	solubility (mole fraction)	0.694

----------
Assay setup: in isobutanol, 283.15 K
Value kind: solubility (mole fraction)

Molecule	Obs value
O=C(Oc1ccccc1)c1ccccc1O	0.0185

----------
Assay setup: in n-butanol, 303.15 K
Value kind: solubility (mole fraction)

Molecule	Value kind	Obs value
O=C(Oc1ccccc1)c1ccccc1O	solubility (mole fraction)	0.34

----------
Assay setup: in n-propanol, 283.15 K
Value kind: solubility (mole fraction)

Molecule	Obs value
O=C(Oc1ccccc1)c1ccccc1O	0.0272

----------
Assay setup: in n-butanol, 308.15 K

Molecule	solubility (mole fraction)
O=C(Oc1ccccc1)c1ccccc1O	0.75

----------
Assay setup: in sec-butanol, 293.15 K

Molecule	solubility (mole fraction)
O=C(Oc1ccccc1)c1ccccc1O	0.105

----------
Assay setup: in isobutanol, 308.15 K

Molecule	solubility (mole fraction)
O=C(Oc1ccccc1)c1ccccc1O	0.709

----------
Assay setup: in n-butanol, 288.15 K

Molecule	solubility (mole fraction)
O=C(Oc1ccccc1)c1ccccc1O	0.0511

----------
Assay setup: in isobutanol, 298.15 K
Value kind: solubility (mole fraction)

Molecule	Obs value
O=C(Oc1ccccc1)c1ccccc1O	0.112

----------
Assay setup: in n-propanol, 288.15 K

Molecule	solubility (mole fraction)
O=C(Oc1ccccc1)c1ccccc1O	0.043

----------
Assay setup: in sec-butanol, 298.15 K

Molecule	solubility (mole fraction)
O=C(Oc1ccccc1)c1ccccc1O	0.201

----------
Assay setup: in sec-butanol, 303.15 K

Molecule	solubility (mole fraction)
O=C(Oc1ccccc1)c1ccccc1O	0.398

----------
Assay setup: in sec-butanol, 308.15 K
Value kind: solubility (mole fraction)

Molecule	Obs value
O=C(Oc1ccccc1)c1ccccc1O	0.752

----------
Assay setup: in methanol, 283.15 K

Molecule	solubility (mole fraction)
O=C(Oc1ccccc1)c1ccccc1O	0.0162

----------
Assay setup: in n-propanol, 303.15 K

Molecule	solubility (mole fraction)
O=C(Oc1ccccc1)c1ccccc1O	0.33

----------
Assay setup: in isobutanol, 303.15 K

Molecule	solubility (mole fraction)
O=C(Oc1ccccc1)c1ccccc1O	0.279

----------
Assay setup: in isopropanol, 283.15 K

Molecule	solubility (mole fraction)
O=C(Oc1ccccc1)c1ccccc1O	0.0169

----------
Assay setup: in sec-butanol, 288.15 K

Molecule	solubility (mole fraction)
O=C(Oc1ccccc1)c1ccccc1O	0.0602
